- Tested on: alkaline phosphatase, intestinal [Bos taurus]
- assay.remarks: IAP enzyme activity enhancers – biochemical, bovine IAP, CDP-star luminescence, primary screen (AID 1016)
- assay.context: purified bovine IAP, 30 min, at 20 µM, hits give high values, fold of DMSO-control signal, blank-subtracted
The campaign covered roughly 200,000 compounds. About 330 (0.17%) were called active. The sample holds actives, similar compounds and a random draw of the others, so the mix is not that of the screen.
measured.metric: activation factor
Answers are plain numbers.

Some entries whose results are on file:
Record request: activation factor value, item `CC(=O)Nc1ccccc1OC(=O)N1CCOCC1`
0.9

Record request: activation factor value, item `COc1ccc(NC(=O)CN2CCN(S(=O)(=O)c3ccc(F)cc3)CC2)cc1Cl`
0.9

Record request: activation factor value, item `CC(=O)c1cccc(NC(=O)[C@@H](NC(N)=O)C(C)C)c1`
0.9

Record request: activation factor value, item CCOc1ccc(C(O)Cc2nc3ccccc3n2C)cc1 (centres undefined)
0.8

Consider the following items and state reported activation factor for each.
1. O=C(Oc1ccc2c(c1)CCC2)N1CCOCC1
2. CCCn1c(C(O)c2cc(OC)ccc2OC)nc2ccccc21 (centres undefined)
3. O=C(O)c1cccc(N=NN2CCCCCC2)c1
4. COc1ccc(OC)c(NC(=S)N2CCc3ccccc3C2)c1
5. C=CCc1cccc2cc(C(=O)NC3CCCC3)c(=O)oc12

1. 2.4
2. 73.3
3. 1.1
4. 1
5. 0.9
